The origin of these recorded values is patent US20260207623A1.

- test name: Phase 1 pharmacokinetic study of a single oral dose of 20 mg E4 monohydrate in female subjects with normal hepatic function and mild, moderate or severe hepatic impairment (plasma, LC-MS/MS, non-compartmental analysis)
- Assay type: in vivo, human
- particulars: female, human, plasma, po, 20 mg, Mild (Test); one-way ANOVA; single oral dose 20 mg; read-out: Cmax, Geometric LS Mean

structure: C[C@]12CC[C@@H]3c4ccc(O)cc4CC[C@H]3[C@@H]1[C@@H](O)[C@@H](O)[C@@H]2O
Cmax (ng/mL): 34.5

====

- test name: Phase 1 pharmacokinetic study of a single oral dose of 20 mg E4 monohydrate in female subjects with normal hepatic function and mild, moderate or severe hepatic impairment (plasma, LC-MS/MS, non-compartmental analysis)
- Type: in vivo, human
- particulars: female, human, plasma, po, 20 mg, Normal hepatic function; single oral dose 20 mg E4 monohydrate; plasma; read-out: Cmax, Mean
reported endpoint: Cmax

structure: C[C@]12CC[C@@H]3c4ccc(O)cc4CC[C@H]3[C@@H]1[C@@H](O)[C@@H](O)[C@@H]2O
val: ~24 ng/mL

====

- test name: Phase 1 pharmacokinetic study of a single oral dose of 20 mg E4 monohydrate in female subjects with normal hepatic function and mild, moderate or severe hepatic impairment (plasma, LC-MS/MS, non-compartmental analysis)
- Type: in vivo, human
- particulars: female, human, plasma, po, 20 mg, Moderate hepatic impairment; single oral dose 20 mg E4 monohydrate; plasma; read-out: Vz/F, GM
reported endpoint: Vd/F (L)

structure: C[C@]12CC[C@@H]3c4ccc(O)cc4CC[C@H]3[C@@H]1[C@@H](O)[C@@H](O)[C@@H]2O
units symbol: L
val: 3960

====

- test name: Phase 1 pharmacokinetic study of a single oral dose of 20 mg E4 monohydrate in female subjects with normal hepatic function and mild, moderate or severe hepatic impairment (plasma, LC-MS/MS, non-compartmental analysis)
- Format: in vivo, human
- particulars: female, human, plasma, po, 20 mg, Moderate hepatic impairment; single oral dose 20 mg E4 monohydrate; plasma; read-out: AUClast, Median
reported endpoint: AUC(0-t) (ng·h/mL)

structure: C[C@]12CC[C@@H]3c4ccc(O)cc4CC[C@H]3[C@@H]1[C@@H](O)[C@@H](O)[C@@H]2O
units symbol: ng·h/mL
val: 114

====

- test name: Phase 1 pharmacokinetic study of a single oral dose of 20 mg E4 monohydrate in female subjects with normal hepatic function and mild, moderate or severe hepatic impairment (plasma, LC-MS/MS, non-compartmental analysis)
- Assay type: in vivo, human
- particulars: female, human, plasma, po, 20 mg, Moderate hepatic impairment; single oral dose 20 mg E4 monohydrate; plasma; read-out: AUClast, Mean
- Procedure: This was a Phase 1, multi-centre, open-label, PK, and safety study of a single oral dose of 20 mg E4 monohydrate in female subjects with normal hepatic function (Group 1), mild hepatic impairment (Group 2), moderate hepatic impairment (Group 3), and severe hepatic impairment (Group 4), as defined using the Child-Pugh classification at Screening. […] PK parameters were calculated by non-compartmental analysis. […]

molecule: C[C@]12CC[C@@H]3c4ccc(O)cc4CC[C@H]3[C@@H]1[C@@H](O)[C@@H](O)[C@@H]2O [E4]
AUC(0-t), ng·h/mL: 122

====

- test name: Phase 1 pharmacokinetic study of a single oral dose of 20 mg E4 monohydrate in female subjects with normal hepatic function and mild, moderate or severe hepatic impairment (plasma, LC-MS/MS, non-compartmental analysis)
- Assay type: in vivo, human
- particulars: female, human, plasma, po, 20 mg, Severe hepatic impairment; single oral dose 20 mg E4 monohydrate; plasma; read-out: Cmax, GM
reported endpoint: Cmax (ng/mL)

molecule: C[C@]12CC[C@@H]3c4ccc(O)cc4CC[C@H]3[C@@H]1[C@@H](O)[C@@H](O)[C@@H]2O [E4]
val: 111
